# Test system: P12-Ichikawa
# Assay: cell viability relative to DMSO control; higher = less cytotoxic
# Run Parameters: RPMI 5 mM glucose + 10% FBS; 48 h; 46.1 µM
Response field label takes true (1) when cell viability is strictly below 40% and false (0) in all other cases.

Compound	Tested On	Label
CCOC(=O)Nc1ccc(NCc2ccc(F)cc2)cc1N	P12-Ichikawa	false (0)
CC(=O)N1CCN(c2ccc(OCc3nn(C)c(C)c3-c3cccc4c(CCCOc5cc(C)c(Cl)c(C)c5)c(C(=O)O)n(Cc5cccnc5)c34)cc2)CC1	P12-Ichikawa	false (0)
CC#C[C@]1(O)CC[C@H]2[C@@H]/3CCC/4=C/C(=O)CCC4=C3[C@H](C[C@]12C)C5=CC=C(C=C5)N(C)C	P12-Ichikawa	true (1)
O=C/1\C=C(/OC(=C1)/C2=C3SC4=C(SC3=CC=C2)C=CC=C4)N5CCOCC5	P12-Ichikawa	false (0)
Fc1cc(-c2cccc3ncc(-c4cnn(C5CCNCC5)c4)nc23)cc(F)c1CN1CCOCC1	P12-Ichikawa	true (1)

Exercise: Quick check: does CNC(=O)c1cccc(-c2ccc3c(N4CCOC[C@@H]4C)nc(N4CCOC[C@@H]4C)nc3n2)c1 have cell viability under 40%?
Solution: false (0)

Exercise: Does the reported cell viability of Cc1ccc(NC(=O)c2ccc(CN3CCN(C)CC3)cc2)cc1Nc1nccc(-c2cccnc2)n1 stay below 40%?
Solution: false (0)

Exercise: Is 40% strictly greater than the compound's reported cell viability? compound: COc1cc2nccc(Oc3ccc(NC(=O)Nc4ccc(F)cc4F)c(F)c3)c2cc1OC
Solution: true (1)

Exercise: Consider CCCCCCCCCCCC(CC1OC(=O)C1CCCCCC)OC(=O)C(CC(C)C)NC=O (centres undefined) . Does its cell viability lie strictly below 40%?
Solution: true (1)

* * *

# System: SEM cells
# Assay: cell viability relative to DMSO control; higher = less cytotoxic
# Run Parameters: RPMI 5 mM glucose + 10% FBS; 48 h; 0.0211 µM
Assay Metric: cell viability (%)
Please respond with the number in % and leave the unit unwritten.

Compound	Assay Metric	Experimental Value
COc1ccc(CCN2CCN(CCCc3ccccc3)CC2)cc1OC	cell viability	124
COc1cc(N2CCC(C(N)=O)CC2)ccc1Nc1nc(N)c(Cl)c(Nc2ccccc2[S+](=O)([O-])C(C)C)n1	cell viability	104
CO/N=C(/C(=O)N[C@@H]1C(=O)N2C(C(=O)O)=C(Cn3ccc(=N)n3CCO)CS[C@H]12)c1csc(N)n1	cell viability	136

Exercise: For the compound shown here, CNC(=O)c1cccc(-c2ccc3c(N4CCOC[C@@H]4C)nc(N4CCOC[C@@H]4C)nc3n2)c1 , give the reported cell viability.
Solution: 93.3

* * *

# Tested on: P12-Ichikawa
# Assay: cell viability relative to DMSO control; higher = less cytotoxic
# Run Parameters: HPLM + 10% dialyzed FBS; 48 h; 0.000781 µM
# maps each entry to its cell viability
Entry rule: numbers only, all in %.

Compound	Tested On	Assay Metric	Result Units	Experimental Value
CCCCN(CCCC)CCC(O)c1cc2c(Cl)cc(Cl)cc2c2cc(C(F)(F)F)ccc12 (stereo not drawn)	P12-Ichikawa	cell viability	%	120
O=C(O)[C@H](Cc1c[nH]c2ccccc12)N1C(=O)c2ccccc2C1=O	P12-Ichikawa	cell viability	%	98.3
Cc1ccc(-n2nc(C(C)(C)C)cc2NC(=O)Nc2ccc(OCCN3CCOCC3)c3ccccc23)cc1	P12-Ichikawa	cell viability	%	106

Exercise: Looking for the measured cell viability of COc1cc(N2CCC(C(N)=O)CC2)ccc1Nc1nc(N)c(Cl)c(Nc2ccccc2[S+](=O)([O-])C(C)C)n1 , can you help?
Solution: 88.6

Exercise: // query cell viability value for entry ClC1=CC=C(CCCOC/2=N/NC(=O)C(=C2NCC3=CN=CC=C3)/Br)C=C1
Solution: 115

Exercise: # cell viability lookup, item COC[C@H](NC(=O)c1cnc(C)s1)C(=O)N[C@@H](COC)C(=O)N[C@@H](Cc1ccccc1)C(=O)[C@@]1(C)CO1
Solution: 96.6

Exercise: GET /values?readout=cell viability&item= Cc1[nH]c(/C=C2\C(=O)Nc3ccc([S+](=O)([O-])N(C)c4cccc(Cl)c4)cc32)c(C)c1C(=O)N1CCN(C)CC1
Solution: 118

Exercise: Find the recorded cell viability belonging to CC(C)(C)OC(=O)CN(Cc1ccc(Cl)cc1)Cc1ccc([N+](=O)[O-])s1 and report it.
Solution: 99.7

* * *

# Tested on: SEM cells
# Assay: cell viability relative to DMSO control; higher = less cytotoxic
# Run Parameters: RPMI 5 mM glucose + 10% FBS; 48 h; 0.19 µM
Assay Metric: cell viability (%)
Give just the numeric value; % need not be written.

NC(=O)N1c2ccccc2CC(=O)c2ccccc21 123

Exercise: Form field: reported cell viability of COc1cc2nccc(Oc3ccc(NC(=O)C4(C(=O)Nc5ccc(F)cc5)CC4)cc3)c2cc1OC
Solution: 55.4

Exercise: If you can, please state the reported cell viability value of COc1cc2nccc(Oc3ccc(NC(=O)Nc4cc(C)on4)c(Cl)c3)c2cc1OC .
Solution: 72.5

Exercise: Bench note: what cell viability did C[C@]\1(CCS\C(=N1)N)C2=CC(=C(F)C=C2F)C3=CN=CN=C3 show?
Solution: 95.7

Exercise: Consider the compound COc1ccc(/C=C\c2cc(OC)c(OC)c(OC)c2)cc1O and give its measured cell viability.
Solution: 7.29

* * *

# Tested on: SEM cells
# Assay: AUC of viability dose-response curve (% viability x log10 dose units); higher = less sensitive
# Run Parameters: HPLM + 10% dialyzed FBS; 48 h
With a cut-off of 400, any AUC of viability dose-response curve strictly below it is called 1; any AUC of viability dose-response curve meeting it or above is called -1.

Compound	Label
COc1cc2ncnc(-n3nc(-c4ccccn4)nc3N)c2cc1OC	1
CN1C(=O)C(Cc2c[nH]c3ccccc23)NC1=S (stereo not drawn)	-1
Cc1cc(O)c2c3c4c(cc(O)c13)C(C)(C)C(=O)c1c(O)cc(O)c(c1-4)C2=O	-1
NC(=O)c1ccc(-c2nc(-c3ccc4c(c3)OCCO4)c(-c3ccccn3)[nH]2)cc1	-1

Exercise: API: query returns whether the compound falls strictly under 400 in AUC of viability dose-response curve. Query: C[C@@H]1CC[C@@]2(OC1)O[C@H]3C[C@H]4[C@@H]5C/C=C6/C[C@H](CC[C@]6(C)[C@H]5CC[C@]4(C)[C@H]3[C@@H]2C)O[C@@H]7O[C@H](CO)[C@@H](O[C@@H]8O[C@@H](C)[C@H](O)[C@@H](O)[C@H]8O)[C@H](O)[C@H]7O[C@@H]9O[C@@H](C)[C@H](O)[C@@H](O)[C@H]9O
Solution: -1

Exercise: Identify whether the compound O=C/1\C=C(/OC(=C1)/C2=C3SC4=C(SC3=CC=C2)C=CC=C4)N5CCOCC5 records AUC of viability dose-response curve below 400.
Solution: -1

Exercise: I'd appreciate it if you could check whether CCC1=C[C@@H]2CN(C1)Cc1c([nH]c3ccccc13)[C@@](C(=O)OC)(c1cc3c(cc1OC)N(C)[C@H]1[C@@](O)(C(=O)OC)[C@H](OC(C)=O)[C@]4(CC)C=CCN5CC[C@]31[C@@H]54)C2 has AUC of viability dose-response curve smaller than 400.
Solution: 1

Exercise: Does the reported AUC of viability dose-response curve of the following compound sit strictly below 400? CCN1CCCC1CNC(=O)c1cc(S(=O)(=O)CC)c(N)cc1OC (stereo not drawn)
Solution: -1

* * *

# System: SEM cells
# Assay: cell viability relative to DMSO control; higher = less cytotoxic
# Run Parameters: RPMI 5 mM glucose + 10% FBS; 48 h; 0.19 µM
Below, each entry is listed with its recorded cell viability.
Give just the number in %; leave the unit off.

Answered cases to consult:
Compound	Tested On	cell viability (%)
NC1CCC(N[C@@H]2C[C@H]2c2ccccc2)CC1 (some centres undefined)	SEM cells	124
Cc1cc(Nc2ncc(Cl)c(Nc3ccccc3[S+](=O)([O-])C(C)C)n2)c(OC(C)C)cc1C1CCNCC1	SEM cells	101
CC[C@H]1OC(=O)[C@H](C)[C@@H](O[C@H]2C[C@@](C)(OC)[C@@H](O)[C@H](C)O2)[C@H](C)[C@@H](O[C@@H]2O[C@@H](C)C[C@H](N(C)C)[C@H]2O)[C@](C)(O)C[C@@H](C)C(=O)[C@H](C)[C@@H](O)[C@]1(C)O	SEM cells	105
CN(C)Cc1ccc(-c2nc3cccc4c3n2CCNC4=O)cc1	SEM cells	127
Fc1cc(-c2cccc3ncc(-c4cnn(C5CCNCC5)c4)nc23)cc(F)c1CN1CCOCC1	SEM cells	105
CC/1=C/N([C@@H]2C[C@@H](O)[C@H](CO)O2)C(=O)NC1=O	SEM cells	99.3
Cc1c[nH]c(/C=C2\C(=O)Nc3ccccc32)c1CCC(=O)O	SEM cells	49.3
C1Cc2[nH]nc(-c3nn[nH]n3)c2C1	SEM cells	137

Exercise: For the compound shown here, C=C(C)[C@@H]1CC[C@]2(C)CC[C@]3(C)[C@H](CC[C@@H]4[C@@]5(C)CC[C@H](O)C(C)(C)[C@@H]5CC[C@]43C)[C@@H]12 , give the reported cell viability.
Solution: 113

Exercise: Can you look up the measured cell viability of FC(F)(F)c1ccc(Nc2nc3cc(Oc4ccnc(-c5ncc(C(F)(F)F)[nH]5)c4)ccc3[nH]2)cc1 for me?
Solution: 117

Exercise: Please look up its cell viability: COc1ccc(Cc2nccc3cc(OC)c(OC)cc23)cc1OC
Solution: 130

Exercise: Consider the compound shown here: COc1cc2c(N3CCN(C(=O)Nc4ccc(OC(C)C)cc4)CC3)ncnc2cc1OCCCN1CCCCC1 What is its recorded cell viability?
Solution: 66.8

Exercise: Entry CC(C)(C)/[N+]([O-])=C/c1ccc([S+](=O)([O-])[O][Na])cc1[S+](=O)([O-])[O][Na] : reported cell viability = ?
Solution: 124

Exercise: Given the entry O=C(O)c1ccc2cc(-c3ccc(O)c(C45CC6CC(CC(C6)C4)C5)c3)ccc2c1 , report its measured cell viability.
Solution: 93.1
